# credit: patent US20260265358A1

- MEASURED_ON: T1, Human Activin A Fc (human, UniProt P03970 309-424 (pig entry))
- T1 construct: also called human Activin A-Fc fusion; human Activin A-Fc antigen; not shown: Fc part
- T1 sequence: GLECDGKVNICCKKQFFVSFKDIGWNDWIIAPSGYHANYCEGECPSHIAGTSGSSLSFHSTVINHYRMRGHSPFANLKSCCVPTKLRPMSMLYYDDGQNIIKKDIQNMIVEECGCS
- ASSAY_NAME: Octet BLI, Fab, monovalent
ATTRIBUTE_MEASURED: Kd (nM)
// note: answer is a bare numeric in nM

Study these solved cases before continuing.
- Fab of anti-Activin A antibody Clone P (Fab, V domains shown, Fab format; only VH and VL are tied to the clone; also called Clone P Fab) VH: QVQLVQSGAEVKKPGSSVKVSCKASGGTFDDYAISWVRQAPGQGLEWMGGIIPRFGIANYAQKFQGRVTITADESTSTAYMELSSLRSEDTAVYYCARPPSSGSDWGQGTLVTVSS VL: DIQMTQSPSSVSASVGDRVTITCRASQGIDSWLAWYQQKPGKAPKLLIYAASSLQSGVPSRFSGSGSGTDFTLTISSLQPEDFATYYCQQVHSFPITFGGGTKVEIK: 1.53
- Fab of anti-Activin A antibody Clone O (Fab, V domains shown, Fab format; only VH and VL are tied to the clone; also called Clone O Fab) VH: QVQLVQSGAEVKKPGSSVKVSCKASGGTFSNYDINWVRQAPGQGLEWMGGIIPVFGTAAYAQKFQGRVTITADESTSTAYMELSSLRSEDTAVYYCAREARDGYRYAFQHWGQGTLVTVSS VL: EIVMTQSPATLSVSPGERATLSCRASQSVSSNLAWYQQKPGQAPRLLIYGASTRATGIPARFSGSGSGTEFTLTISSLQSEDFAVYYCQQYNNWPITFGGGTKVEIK: 1.92
- Fab of anti-Activin A antibody Clone C (Fab, V domains shown, Fab format; only VH and VL are tied to the clone; also called Fab of Clone C) VH: QVQLVQSGAEVKKPGASVKVSCKASGYTFPGYHMHWVRQAPGQGLEWMGVINPSSGDTNYAQKFQGRVTMTRDTSISTAYMELSRLRSDDTAVYYCARARDIAALGLGAFDYWGQGTLVTVSS VL: EIVLTQSPGTLSLSPGERATLSCRASQSVSSSYLAWYQQKPGQAPRLLIYGASSRAGGIPDRFSGSGSGTDFTLTISRLEPEDFAVYYCQQYVAYPRTFGGGTKVEIK: 0.229

# evaluate next
[ask] Provide Kd value for the following binder: Fab of anti-Activin A antibody Clone I (Fab, V domains shown, Fab format; only VH and VL are tied to the clone; also called Clone I Fab) VH: QVQLVQSGAEVKKPGSSVKVSCKASGGTFSNYAISWVRQAPGQGLEWMGYIIPFFGTANYAQKFQGRVTITADESTSTAYMELSSLRSEDTAVYYCARGGSGYSTSWGSSLYWGQGTLVTVSS VL: EIVLTQSPGTLSLSPGERATLSCRASQSVSSSYLAWYQQKPGQAPRLLIYGASYRATGIPDRFSGSGSGTDFTLTISRLEPEDFAVYYCLQSGVFPYTFGGGTKVEIK
[reply] 0.857
